assayed.target: T1, human Tim-3 expressed on the cell surface (human, UniProt Q8TDQ0 22-301)
T1 construct: also called hTim-3; Human Tim-3 (CHO)
experiment.summary: flow cytometry, activated human CD4+ T cells
So I've got a bunch of binders here, and I need their Kd values.

Briefly, Kd measured for h22E11-5-IgG-LC × h22E11-VH3-23 (antibody, V domains shown, Humanized m22E11) VH: EVQLLESGGGLVQPGGSLRLSCAVSGFSLTSYGVHWVRQAPGKGLEWLVVIWSDGSTTYNDSVKGRFTISKDNSKNTVYLQMNSLRAEDTAVYYCARQGGYRYDDAMDYWGQGTLVTVSS VL: EIVLTQSPGTLSLSPGERATLSCKASQSVDYDGNSYVAWYQQKPGQAPRLLIYAASNLESGIPDRFSGSGSGTDFTLTISRLEPEDFAVYYCQQSNEDPYTFGQGTKVEIK : 1.2 nM

Kd for h22E11-VK1-39 × h22E11-VH3-23 (antibody, V domains shown, Humanized m22E11) VH: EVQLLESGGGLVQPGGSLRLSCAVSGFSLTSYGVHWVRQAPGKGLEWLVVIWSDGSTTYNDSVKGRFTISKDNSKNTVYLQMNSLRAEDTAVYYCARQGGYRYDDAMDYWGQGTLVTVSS VL: DIQLTQSPSSLSASVGDRVTITCKASQSVDYDGNSYVNWYQQKPGKAPKLLIYAASNLESGVPSRFSGSGSGTDFTLTISSLQPEDFATYYCQQSNEDPYTFGQGTKVEIK is 1.1 nM

h22E11-VK2-28 × h22E11-VH3-23 (antibody, V domains shown, Humanized m22E11) VH: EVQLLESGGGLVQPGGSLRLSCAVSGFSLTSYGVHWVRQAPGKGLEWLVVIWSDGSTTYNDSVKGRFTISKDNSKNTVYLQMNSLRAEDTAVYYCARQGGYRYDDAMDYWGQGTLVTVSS VL: DIVLTQSPLSLPVTPGEPASISCKASQSVDYDGNSYVNWYLQKPGQSPQLLIYAASNLESGVPDRFSGSGSGTDFTLKISRVEAEDVGVYYCQQSNEDPYTFGQGTKVEIK has a reported Kd of 1.7 nM
